Below is a list of entries, each paired with its recorded pIC50 value.
System: Capan-1 pancreatic adenocarcinoma cells
Assay: Antiproliferative screening, MTS cell viability assay
Type: cell-based
Conditions: Homo sapiens, CAPAN-1, 72 h, read-out: IC50 Capan-1
Kindly note that pIC50 refers to -log10 of the concentration in mol/L and answer with the value alone.

Example results:
Entry O=C(NCCCCNc1ccnc2ccccc12)c1ccccc1NCc1ccccc1 [Compound 10] , pIC50 reported as 5.38

Entry CCN(CC)CCCC(C)Nc1ccnc2cc(Cl)ccc12 (centres unmarked) [CQ, chloroquine, reference compound] , pIC50 reported as 4.34

Entry Cc1nc(CNC(=O)c2ccccc2N)cc2c1[nH]c1ccccc12 [Compound 17] , pIC50 reported as 4.50

Others:
Entry Nc1ccc(Br)cc1C(=O)NCCCCNc1ccnc2cc(Cl)ccc12 [Compound 13] , pIC50 reported as 5.27

Entry Cc1nc(CNC(=O)c2ccccc2NCc2ccccc2)cc2c1[nH]c1ccccc12 [Compound 7] , pIC50 reported as 4.56

Entry Cc1nc(CNC(=O)c2ccc(Cl)cc2NC(=O)OC(C)(C)C)cc2c1[nH]c1ccccc12 [Compound 8] , pIC50 reported as 5.19

----------
Test system: MT-4 cells
Test: Cytotoxicity in MT-4 cell culture
Format: cell-based
Conditions: read-out: Cytotoxicity (CC50); MT-4 cell culture
Parameter: CC50

Entry CC(Cn1cnc2c(N)ncnc21)OCP(=O)(O)O (stereo not shown) , CC50 reported as > 100 µM

----------
System: HIV-1 NL4.3
Test: Antiretroviral assay in MT-4 cells, cytopathic effect
Type: cell-based
Conditions: read-out: Antiviral activity (EC50) HIV-1 NL4.3; MT-4 cell culture, 5 days post-infection
Parameter: pEC50
Kindly note that pEC50 refers to -log10 of the concentration in mol/L and answer with the value alone.

Entry CC(Cn1cnc2c(N)ncnc21)OCP(=O)(O)O (stereo not shown) [PMPA, 2-phosphonomethoxypropyl adenine] , pEC50 reported as 5.80

----------
Test system: K-562 chronic myeloid leukemia cells
Assay: Antiproliferative screening, IncuCyte cell growth
Format: cell-based
Conditions: Homo sapiens, K562, 72 h, read-out: IC50 K-562
Parameter: pIC50
Kindly note that pIC50 refers to -log10 of the concentration in mol/L and answer with the value alone.

Log: K-562 chronic myeloid leukemia cells, compound Cc1nc(CNC(=O)c2ccc(Cl)cc2NC(=O)OC(C)(C)C)cc2c1[nH]c1ccccc12 [Compound 8] , pIC50 = 4.54

Others:
Log: K-562 chronic myeloid leukemia cells, compound O=C(NCCCCNc1ccnc2cc(Cl)ccc12)c1ccccc1NCc1ccccc1 [Compound 1] , pIC50 = 4.25

Log: K-562 chronic myeloid leukemia cells, compound Nc1cc(Cl)ccc1C(=O)NCCCCNc1ccnc2cc(Cl)ccc12 [Compound 12] , pIC50 = 5.08

Log: K-562 chronic myeloid leukemia cells, compound Nc1ccc(Br)cc1C(=O)NCCCCNc1ccnc2cc(Cl)ccc12 [Compound 13] , pIC50 = 5.11

Log: K-562 chronic myeloid leukemia cells, compound CC(C)(C)OC(=O)Nc1ccc(Br)cc1C(=O)NCCCCNc1ccnc2cc(Cl)ccc12 [Compound 3] , pIC50 = 4.29

Log: K-562 chronic myeloid leukemia cells, compound Nc1ccccc1C(=O)NCCCCNc1ccnc2ccccc12 [Compound 11] , pIC50 = 4.73

Log: K-562 chronic myeloid leukemia cells, compound COc1cc(NC(C)CCCN)c2ncccc2c1 (stereo not shown) [PQ, primaquine, reference compound] , pIC50 = 4.39

Log: K-562 chronic myeloid leukemia cells, compound Cc1nc(CNC(=O)c2ccccc2N)cc2c1[nH]c1ccccc12 [Compound 17] , pIC50 = 4.28

Log: K-562 chronic myeloid leukemia cells, compound Cc1nc(CNC(=O)c2cc(Br)ccc2NC(=O)OC(C)(C)C)cc2c1[nH]c1ccccc12 [Compound 9] , pIC50 = 4.20

Log: K-562 chronic myeloid leukemia cells, compound Cc1nc(CNC(=O)c2ccccc2NCc2ccccc2)cc2c1[nH]c1ccccc12 [Compound 7] , pIC50 = 4.04

Log: K-562 chronic myeloid leukemia cells, compound Cc1nc(CNC(=O)c2cc(Br)ccc2N)cc2c1[nH]c1ccccc12 [Compound 19] , pIC50 = 4.19

Log: K-562 chronic myeloid leukemia cells, compound CC(C)(C)OC(=O)Nc1cc(Cl)ccc1C(=O)NCCCCNc1ccnc2cc(Cl)ccc12 [Compound 2] , pIC50 = 4.26

Log: K-562 chronic myeloid leukemia cells, compound O=C(NCCCCNc1ccnc2ccccc12)c1ccccc1NCc1ccccc1 [Compound 10] , pIC50 = 5.23

Log: K-562 chronic myeloid leukemia cells, compound CCN(CC)CCCC(C)Nc1ccnc2cc(Cl)ccc12 (stereo not shown) [CQ, chloroquine, reference compound] , pIC50 = 4.30

----------
System: HL-60 acute myeloid leukemia cells
Test: Antiproliferative screening, IncuCyte cell growth
Assay type: cell-based
Details: Homo sapiens, HL-60, 72 h, read-out: IC50 HL-60
Parameter: IC50

Entry CCN(CC)CCCC(C)Nc1ccnc2cc(Cl)ccc12 (stereo not shown) [CQ, chloroquine, reference compound] , IC50 reported as > 100 µM

Entry Cc1nc(CNC(=O)c2ccccc2N)cc2c1[nH]c1ccccc12 [Compound 17] , IC50 reported as 44 µM

Entry CC(C)(C)OC(=O)Nc1ccc(Br)cc1C(=O)NCCCCNc1ccnc2cc(Cl)ccc12 [Compound 3] , IC50 reported as 60.5 µM

Entry COc1cc(NC(C)CCCNC(=O)c2cc(Br)ccc2NC(=O)OC(C)(C)C)c2ncccc2c1 (stereo not shown) [Compound 6] , IC50 reported as > 100 µM

Entry COc1cc(NC(C)CCCNC(=O)c2ccccc2N)c2ncccc2c1 (stereo not shown) [Compound 14] , IC50 reported as > 100 µM

Entry Cc1nc(CN)cc2c1[nH]c1ccccc12 [HA, reference compound] , IC50 reported as > 100 µM

Entry Cc1nc(CNC(=O)c2ccc(Cl)cc2NC(=O)OC(C)(C)C)cc2c1[nH]c1ccccc12 [Compound 8] , IC50 reported as 6.7 µM

----------
System: HCT-116 colorectal carcinoma cells
Assay: Antiproliferative screening, MTS cell viability assay
Assay type: cell-based
Conditions: Homo sapiens, HCT-116, 72 h, read-out: IC50 HCT-116
We label by threshold. Values of IC50 strictly beneath 30 µM are True. Values of 30 µM and up are False.

Worked set:
## Task Strictly below 30 µM in IC50? "Nc1ccccc1C(=O)NCCCCNc1ccnc2ccccc12"
## Result False

## Task Strictly below 30 µM in IC50? CCN(CC)CCCC(C)Nc1ccnc2cc(Cl)ccc12 (centres unmarked) [CQ, chloroquine, reference compound]
## Result False

## Task Strictly below 30 µM in IC50? "Cc1nc(CNC(=O)c2ccc(Cl)cc2N)cc2c1[nH]c1ccccc12"
## Result False

## Task Strictly below 30 µM in IC50? "Cc1nc(CNC(=O)c2ccc(Cl)cc2NC(=O)OC(C)(C)C)cc2c1[nH]c1ccccc12"
## Result True

Others:
## Task Strictly below 30 µM in IC50? COc1cc(NC(C)CCCNC(=O)c2ccccc2N)c2ncccc2c1 (centres unmarked)
## Result False

## Task Strictly below 30 µM in IC50? "O=C(NCCCCNc1ccnc2cc(Cl)ccc12)c1ccccc1NCc1ccccc1"
## Result False

## Task Strictly below 30 µM in IC50? "Nc1ccc(Br)cc1C(=O)NCCCCNc1ccnc2cc(Cl)ccc12"
## Result True

## Task Strictly below 30 µM in IC50? "Cc1nc(CNC(=O)c2cc(Br)ccc2N)cc2c1[nH]c1ccccc12"
## Result False

----------
Assay: in vitro
Details: human
Below is a list of entries, each paired with its recorded CC50 value.

Example results:
Entry Cc1nc(CN)cc2c1[nH]c1ccccc12 [HA, reference compound] , CC50 reported as > 100 µM

Entry CCC(CC)COC(=O)[C@H](C)N[P@](=O)(OC[C@H]1O[C@@](C#N)(c2ccc3c(N)ncnn23)[C@H](O)[C@@H]1O)Oc1ccccc1 [Remdesivir, remdesivir, reference compound] , CC50 reported as > 10 µM

Entry "N#C[C@@]1(c2ccc3c(N)ncnn23)O[C@H](CO)[C@@H](O)[C@H]1O" , CC50 reported as > 100 µM

Now look at this entry.
Entry COc1cc(NC(C)CCCN)c2ncccc2c1 (stereo not shown) [PQ, primaquine, reference compound] , CC50 reported as > 100 µM

----------
Below is a list of entries, each paired with its recorded pIC50 value.
System: HL-60 acute myeloid leukemia cells
Assay: Antiproliferative screening, IncuCyte cell growth
Assay type: cell-based
Conditions: Homo sapiens, HL-60, 72 h, read-out: IC50 HL-60
pIC50: −log10 of the molar value.

Entry COc1cc(NC(C)CCCNC(=O)c2cc(Br)ccc2N)c2ncccc2c1 (stereo not drawn) [Compound 16] , pIC50 reported as < 4.00

Entry O=C(NCCCCNc1ccnc2cc(Cl)ccc12)c1ccccc1NCc1ccccc1 [Compound 1] , pIC50 reported as < 4.00

Entry Cc1nc(CNC(=O)c2ccc(Cl)cc2N)cc2c1[nH]c1ccccc12 [Compound 18] , pIC50 reported as < 4.00

Entry COc1cc(NC(C)CCCNC(=O)c2ccc(Cl)cc2NC(=O)OC(C)(C)C)c2ncccc2c1 (stereo not drawn) [Compound 5] , pIC50 reported as < 4.00

Entry Cc1nc(CNC(=O)c2cc(Br)ccc2NC(=O)OC(C)(C)C)cc2c1[nH]c1ccccc12 [Compound 9] , pIC50 reported as 4.97

Entry COc1cc(NC(C)CCCNC(=O)c2ccc(Cl)cc2N)c2ncccc2c1 (stereo not drawn) [Compound 15] , pIC50 reported as < 4.00

Origin of measurements: paper PMC8741576
